Listed here: items and their measured Herbicidal action against POLCO.
- Tested on: Polygonum convolvulus
- protocol_description: Post-emergence herbicidal action, POLCO
- Type: in vivo
- experimental_setup: comparative experiment, post-emergence, 5 g of a.i./ha
Lab note: record the figure alone, no unit after it.

[[record]]
molecule = "CCSc1c(C(F)(F)F)ccc(C(=O)Nc2nnnn2C)c1Cl [Example V-4, reference compound]"
metric = "Herbicidal action against POLCO"
value_observed = 30

[[record]]
molecule = "CSc1c(C(=O)Nc2nnnn2C)ccc(C(F)(F)F)c1S(C)(=O)=O [Example V-2, reference compound]"
metric = "Herbicidal action against POLCO"
value_observed = 0

[[record]]
molecule = "CSc1c(C(=O)Nc2nnnn2C)ccc(C(F)(F)F)c1CS(C)(=O)=O"
metric = "Herbicidal action against POLCO"
value_observed = 70


Attention now turns to another entry.
Task: Any idea what its Herbicidal action against POLCO is? The molecule is Cn1nnnc1NC(=O)c1ccc(C(F)(F)F)c(CS(C)(=O)=O)c1Cl
Output: 60
